Sourced from PubChem BioAssay (NCI)

test system: HOP-62 NSCLC; assay: NCI-60 one-dose screen, 48 h (100 = growth as untreated, 0 = no growth, -100 = all killed); conditions: 10 µM unless noted
Compounds without any hit were thinned out: in the full panel of roughly 83,000, 20% have a hit.
Parameter: growth. Scope: all listed entries.
Express it in %; write the number only.

{"Test smiles": "COC(=O)c1c(C(=O)OC)c2c3ccccc3c3ccccc3n2c1C(=O)C(F)(F)F", "Uom": "%", "growth": 107}

Enquiry: Item `N/C(=N\c1nc2ccccc2s1)NC(=O)Nc1ccccc1[N+](=O)[O-]` has what recorded growth?
Return: 30.1

Enquiry: Query (compound): `C=CC[n+]1cccc2c3ccccc3ccc21` ; field requested: growth
Return: 44.9

Enquiry: Reported growth for `N/C(=N\c1nc2ccccc2s1)NC(=O)Nc1ccccc1F` : what is it?
Return: 0.224

Enquiry: Look up growth for this compound: `CNc1nc2ccccc2n2c(-c3ccc(O)c(O)c3)cnc12`
Return: 26.5

Enquiry: Suppose we examine the compound `Cn1cc(-c2cc3nc(-c4c[nH]c5ccccc45)cc(N)n3n2)c2ccccc21` ; what growth value has been reported?
Return: -68.2

* * *

test system: SK-MEL-5 melanoma; experiment: NCI-60 one-dose screen, 48 h; details: 10 µM unless noted
About 83,000 compounds went through this panel and 20% of them were active in at least one assay; those are over-represented in the sample as a whole. The source made the active and inactive calls. The calls were made as follows: active = growth percent below 10; inactive = the rest.
Field 'call' accepts active, inactive

Enquiry: Any idea what this test logged for `COc1cccc(-c2ccc(/C=N/NC(=O)c3[nH]c4ccc(Br)cc4c3-c3ccccc3)s2)c1` ?
Return: active

Enquiry: Can you look up the reported call for `COc1ccc(-n2c(NC(=O)N3CCN(C)CC3)c(C#N)c3ccccc32)cc1` for me?
Return: inactive

Enquiry: What is the recorded call for this compound in the test? `CCCSc1nnc(-c2sc3nc4ccccc4n3c2C)o1`
Return: inactive

Enquiry: Given `S=C(Nc1ccccc1)Nc1ccc(OCc2nc3ccc(Cl)cc3[nH]2)cc1` , state the outcome it received in this test.
Return: inactive

Enquiry: State the result this test recorded for `COc1ccc(-c2nc3ccccc3n2CC(=O)N=Nc2c(O)[nH]c3ccc(Br)cc23)cc1` .
Return: inactive

* * *

In this section, each of the molecules is paired with its reported growth.
tested on: DU-145 prostate; assay: NCI-60 one-dose screen, 48 h (100 = growth as untreated, 0 = no growth, -100 = all killed); details: 1 µM
This is part of a sample that, as a whole, favours compounds with a hit. Of some 83,000 tested, about 20% had one in any assay. Activity calls are given as the source filed them. How the source made its calls: active means growth percent below 10; inactive means the rest.

{"Test smiles": "CC/C(=C(/c1ccc(O)cc1)c1ccc(OCCN(C)C(=O)COCCOCCNC(=O)Cc2ccc3c(c2)CN([C@@H]2CCC(=O)NC2=O)C3=O)cc1)c1ccccc1", "Assayed system": "DU-145 prostate", "Endpoint name": "growth", "Result": "104% (inactive)"}
{"Test smiles": "CC/C(=C(/c1ccc(O)cc1)c1ccc(OCCN(C)C(=O)COCCOCCNC(=O)c2ccc3c(c2)CN([C@@H]2CCC(=O)NC2=O)C3=O)cc1)c1ccccc1", "Assayed system": "DU-145 prostate", "Endpoint name": "growth", "Result": "107% (inactive)"}
{"Test smiles": "CC/C(=C(\\c1ccc(O)cc1)c1ccc(OCCNC)cc1)c1ccccc1", "Assayed system": "DU-145 prostate", "Endpoint name": "growth", "Result": "103% (inactive)"}
{"Test smiles": "CC/C(=C(\\c1ccc(O)cc1)c1ccc(OCCN(C)C(=O)COCCNC(=O)Cc2ccc3c(c2)CN([C@@H]2CCC(=O)NC2=O)C3=O)cc1)c1ccccc1", "Assayed system": "DU-145 prostate", "Endpoint name": "growth", "Result": "103% (inactive)"}

Enquiry: Which measured growth value corresponds to `CC/C(=C(\c1ccc(O)cc1)c1ccc(OCCN(C)C(=O)CCOCCNC(=O)c2ccc3c(c2)CN([C@@H]2CCC(=O)NC2=O)C3=O)cc1)c1ccccc1` ?
Return: 105% (inactive)

* * *

compounds and their reported growth
system: 786-0 renal; test: NCI-60 one-dose screen, 48 h (100 = growth as untreated, 0 = no growth, -100 = all killed); conditions: 10 µM unless noted
This is part of a sample that, as a whole, favours compounds with a hit. Of some 83,000 tested, about 20% had one in any assay.
Unit % implied. Number only.

As a guide, the following entries are already answered.
{"Compound": "O=C(CSc1nnc(-c2ccc(-c3nc4ccc(Cl)cc4[nH]3)cc2)o1)Nc1ccc(Br)cc1", "Result number": -44.1}
{"Compound": "COc1ccc(/C=C/C(=O)c2ccc(S(=O)(=O)NCCNc3nc(N(C)C)nc(N4CCOCC4)n3)cc2)cc1", "Result number": 80.1}
{"Compound": "O=C1CCC(N2C(=O)c3cccc(NCCCCCC(=O)N4CCN(c5ccc6nc7c(nc6c5C(F)(F)F)C(=O)c5ncccc5C7=O)CC4)c3C2=O)C(=O)N1 (stereo not drawn)", "Result number": -56.5}
{"Compound": "Nc1cc2ccccc2c(=O)n1NC(=O)c1ccc(Br)cc1", "Result number": 107}
{"Compound": "C/C(=N\\Nc1ccc(S(N)(=O)=O)cc1)c1cnn(-c2cc(=O)[nH]c3ccc(Br)cc23)c1C", "Result number": 85.9}

Enquiry: Quick one: growth for CC(Nc1ncnc2ccc(-c3ccc4oc(N)nc4c3)cc12)c1ccccc1 (stereo not drawn) ?
Return: -48.2

Enquiry: So what's the measured growth for this one? `COc1cc(CNC(=O)C[C@H](C)CCC=C(C)C)ccc1OCc1cn(-c2ccc(Br)cc2)nn1`
Return: 68.7

Enquiry: Consider the compound shown here: `Cn1cc(-c2cc(N)n3nc(-c4c[nH]c5ccc(Cl)cc45)cc3n2)c2cc(Br)cnc21` What is its recorded growth?
Return: -93.7

* * *

test system: MALME-3M melanoma; test: NCI-60 one-dose screen, 48 h; conditions: 10 µM unless noted
This is part of a sample that, as a whole, favours compounds with a hit. Of some 83,000 tested, about 20% had one in any assay. The source made the active and inactive calls. The calls were made as follows: active = growth percent below 10; inactive = the rest.
Give your call using only these classes: active, inactive

{"Compound": "COc1c(F)ccc(C(=O)Nc2ccc3nc(NC(=O)C4CCCN(S(=O)(=O)c5ccc(C(C)(C)C)cc5)C4)sc3c2)c1F (centres undefined)", "Assayed system": "MALME-3M melanoma", "Classification": "inactive"}
{"Compound": "O=C(Nc1ccc(S(=O)(=O)N2CCCCC2)cc1)C(Cl)Cl", "Assayed system": "MALME-3M melanoma", "Classification": "inactive"}
{"Compound": "O=C(Nc1ccc(-c2ccc3c(c2)NC(=O)/C3=C\\c2ccc[nH]2)cc1)Nc1ccc(Cl)c(C(F)(F)F)c1", "Assayed system": "MALME-3M melanoma", "Classification": "inactive"}
{"Compound": "CCc1ccc(SC2c3cc(OC)ccc3Oc3nc(N)c(C#N)c(N)c32)cc1 (centres undefined)", "Assayed system": "MALME-3M melanoma", "Classification": "active"}
{"Compound": "COc1ccc(-c2cc(C)nc3[nH]c(=O)sc23)cc1", "Assayed system": "MALME-3M melanoma", "Classification": "inactive"}

Query compound follows.
Enquiry: Hi team, can someone confirm the assay call for `C=CC(=O)N1CCN(c2ccc3nc4c(nc3c2C(F)(F)F)C(=O)c2ncccc2C4=O)CC1` ?
Return: active

* * *

Reported growth values for a set of compounds
tested on: UACC-62 melanoma; assay: NCI-60 one-dose screen, 48 h (100 = growth as untreated, 0 = no growth, -100 = all killed); conditions: 10 µM unless noted
This is part of a sample that, as a whole, favours compounds with a hit. Of some 83,000 tested, about 20% had one in any assay.
Use % as the unit, but write only the number.

Previously resolved entries follow.
{"Test smiles": "CS(=O)(=O)Nc1cc(-c2ccc3ncnc(N4CCc5cc(F)c(Cl)cc54)c3c2)cnc1Cl", "Assayed system": "UACC-62 melanoma", "growth [%]": -43.2}
{"Test smiles": "CN(CCSSCCN1CCOCC1)C(=O)Oc1cc2c(c3ccccc13)[C@H](CCl)CN2C(=O)c1cc2cc(OCCCN3CCC3)ccc2[nH]1", "Assayed system": "UACC-62 melanoma", "growth [%]": -72.7}
{"Test smiles": "Cc1nn(-c2ccccc2)c2ncn(CC(=O)N/N=C/c3ccccc3O)c(=O)c12", "Assayed system": "UACC-62 melanoma", "growth [%]": 34.3}

Enquiry: Could you tell me which growth is on file for `O=C(Nc1nc2ccc([N+](=O)[O-])cc2s1)Nc1ccccc1F` ?
Return: 22.4

Enquiry: Give its growth value. Item: `COc1ccc2[nH]c(O)c(N=NC(=O)c3ccc4nc(-c5ccc(Cl)cc5)[nH]c4c3)c2c1`
Return: 69.8
